Assay: physchem
Conditions: pH 10.5
Overview of recorded chromatographic logD for various molecules
Output spec: single numeric token, no unit.

Worked examples, 8 molecules total:
{"STRUCTURE_STRING": "COc1ccc(-c2cc(CN3CCOCC3)c(C)n2-c2ccc(F)cc2)cc1", "chromatographic logD": 3.73}
{"STRUCTURE_STRING": "CCCc1ccc(-c2cc(CN3CCOCC3)c(C)n2-c2ccc(Cl)cc2)cc1", "chromatographic logD": 5.59}
{"STRUCTURE_STRING": "CCc1ccc(-n2c(-c3ccc(OC)cc3)cc(CN3CCOCC3)c2C)cc1", "chromatographic logD": 4.52}
{"STRUCTURE_STRING": "Cc1ccc(-c2cc(CN3CCOCC3)c(C)n2-c2ccc(F)cc2)cc1", "chromatographic logD": 4.26}
{"STRUCTURE_STRING": "CCCc1ccc(-c2cc(CN3CCOCC3)c(C)n2-c2ccc(OC)cc2)cc1", "chromatographic logD": 4.93}
{"STRUCTURE_STRING": "CCc1ccc(-c2cc(CN3CCOCC3)c(C)n2-c2ccc(Cl)cc2)cc1", "chromatographic logD": 5.16}
{"STRUCTURE_STRING": "Cc1c(CN2CCOCC2)cc(-c2ccc(Cl)cc2)n1-c1ccc(C(C)C)cc1", "chromatographic logD": 5.7}
{"STRUCTURE_STRING": "COc1ccc(-n2c(-c3ccc(C)cc3)cc(CN3CCOCC3)c2C)cc1", "chromatographic logD": 4.12}

Proceeding to the next molecule to report its chromatographic logD.
[Q] What value of chromatographic logD has been reported for the following molecule? CCc1ccc(-c2cc(CN3CCOCC3)c(C)n2-c2ccc(OC)cc2)cc1
[A] 4.5

The values you see were collected from paper PMC3578785.
